- Assay Protocol: LD50, lethal dosage at which 50 percent of the animals expire
- Condition Label: mouse, in vivo, ip; mice, intraperitoneal injection unless otherwise indicated
Property Name: LD50

[[record]]
molecule = "CC1CC(C)(C)CC2(C1)OC(N)=NC2=O (stereo not shown)"
result = "> 750 mg/kg"


Provide the reported LD50 of each entry below, same order.
1. NC1=NC(=O)C2(CCCCC2)O1
2. CN1CCC2(CC1)OC(N)=NC2=O
3. NC1=NC(=O)C2(CCCCCC2)O1

1. > 1000 mg/kg
2. > 1000 mg/kg
3. > 1000 mg/kg

* * *

- Assay Protocol: LD50, lethal dosage at which 50 percent of the animals expire
- Condition Label: mouse, in vivo, ip; mice, intraperitoneal injection unless otherwise indicated
- Description: Table VI below details the activity of the various species of this series along with the dosages utilized expressed in mg/kg of body weight and the lethal dosage at which 50 percent of the animals expire (^LD 50) for each of the compounds. Unless otherwise indicated, the dosage and the ^LD 50 were administered by intraperitoneal injection. It is to be understood, of course, that the particular route of administration is not critical to the manifestation of biological effects.
Property Name: LD50

[[record]]
compound = "CC1CC2(CC(C)N1C)OC(N)=NC2=O (centres unmarked)"
result = "> 500 mg/kg"

[[record]]
compound = "NC1=NC(=O)C2(CCC3CCCCC3C2)O1 (centres unmarked)"
result = "> 1000 mg/kg"

[[record]]
compound = "NC1=NC(=O)C2(CCC2)O1"
result = "> 500 mg/kg"

[[record]]
compound = "NC1=NC(=O)C2(CCNCC2)O1"
result = "> 1000 mg/kg"

[[record]]
compound = "NC1=NC(=O)C2(CCN(CCc3ccccc3)CC2)O1"
result = "> 1000 mg/kg"


Provide the reported LD50 of each entry below, same order.
1. CC1CCC2(CC1)OC(N)=NC2=O (centres unmarked)
2. CC1CC(C)CC2(C1)OC(N)=NC2=O (centres unmarked)
3. NC1=NC(=O)C2(CCCC2)O1
4. NC1=NC(=O)C2(CCCCCCC2)O1
5. CC1CCCC2(C1)OC(N)=NC2=O (centres unmarked)
6. CC1CC2(CC(C)C1C)OC(N)=NC2=O (centres unmarked)
7. NC1=NC(=O)C2(CCN(Cc3ccccc3)CC2)O1
8. NC1=NC(=O)C2(CC3CCC2C3)O1 (centres unmarked)

1: > 1000 mg/kg; 2: ~300 mg/kg; 3: > 1000 mg/kg; 4: > 1000 mg/kg; 5: ~750 mg/kg; 6: > 1000 mg/kg; 7: > 1000 mg/kg; 8: > 1000 mg/kg

What value of measured LD50 is listed for `CC(C)N1CCC2(CC1)OC(N)=NC2=O` ?
1000 mg/kg
